- subject.of.test: Vasopressin V1a receptor (Mus musculus, UniProt Q62463)
- Sequence (Q62463 whole entry): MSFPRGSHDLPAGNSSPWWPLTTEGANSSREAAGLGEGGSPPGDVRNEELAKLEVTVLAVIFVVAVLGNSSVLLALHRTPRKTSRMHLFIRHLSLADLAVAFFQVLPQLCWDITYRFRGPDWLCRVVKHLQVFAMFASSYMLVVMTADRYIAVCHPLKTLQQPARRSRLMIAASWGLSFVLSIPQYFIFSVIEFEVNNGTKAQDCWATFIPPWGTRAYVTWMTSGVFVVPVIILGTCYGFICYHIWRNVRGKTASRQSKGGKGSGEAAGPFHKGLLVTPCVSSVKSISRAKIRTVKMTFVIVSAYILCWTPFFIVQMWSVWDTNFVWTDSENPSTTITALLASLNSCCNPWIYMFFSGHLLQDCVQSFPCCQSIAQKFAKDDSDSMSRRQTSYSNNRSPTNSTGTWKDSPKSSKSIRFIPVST
- test.description: Displacement of [3H]-vasopressin from mouse vasopressin 1a receptor expressed in HEK293 cell membranes after 1 hr by scintillation proximity assay
- condition: read-out: Ki
# reported log10(Ki); entries follow
quantity.measured: log10(Ki) (log10 of the value in µM)

structure_notation=CN1CCC(n2cc(C(=O)N3CCC4(CC3)OCc3ccccc34)c3ccc(Cl)cc32)CC1 subject_of_test="Vasopressin V1a receptor (Mus musculus, UniProt Q62463)" readout_number=-1.96
structure_notation=CN(C)CCNC(=O)Cn1cc(C(=O)N2CCC3(CC2)OCc2ccccc23)c2ccc(Cl)cc21 subject_of_test="Vasopressin V1a receptor (Mus musculus, UniProt Q62463)" readout_number=-0.75
structure_notation=O=C(c1c[nH]c2cc(Cl)ccc12)N1CCC2(CC1)OCc1ncccc12 subject_of_test="Vasopressin V1a receptor (Mus musculus, UniProt Q62463)" readout_number=0.68
structure_notation=O=C(c1c[nH]c2cc(Cl)ccc12)N1CCC2(CC1)c1ccccc1CS2(=O)=O subject_of_test="Vasopressin V1a receptor (Mus musculus, UniProt Q62463)" readout_number=0.77
structure_notation=O=C(c1c[nH]c2cc(Cl)ccc12)N1CCC2(CC1)CNc1ccccc12 subject_of_test="Vasopressin V1a receptor (Mus musculus, UniProt Q62463)" readout_number=0.77
structure_notation=O=C(c1c[nH]c2cc(Cl)ccc12)N1CCN(c2ccccc2Cl)CC1 subject_of_test="Vasopressin V1a receptor (Mus musculus, UniProt Q62463)" readout_number=0.29
structure_notation=O=C(c1c[nH]c2cc(Cl)ccc12)N1CCC2(CC1)OCc1cccnc12 subject_of_test="Vasopressin V1a receptor (Mus musculus, UniProt Q62463)" readout_number=0.01
structure_notation=CN(C)C(=O)Cn1cc(C(=O)N2CCC3(CC2)OCc2ccccc23)c2ccc(Cl)cc21 subject_of_test="Vasopressin V1a receptor (Mus musculus, UniProt Q62463)" readout_number=-1.85
structure_notation=CN(C)CCn1cc(C(=O)N2CCC3(CC2)OCc2ccccc23)c2ccc(Cl)cc21 subject_of_test="Vasopressin V1a receptor (Mus musculus, UniProt Q62463)" readout_number=-1.41

* * *

# pKi per entry
- subject.of.test: Vasopressin V1a receptor (Mus musculus, UniProt Q62463)
- test.description: Displacement of [3H]-vasopressin from mouse vasopressin 1a receptor expressed in HEK293 cell membranes after 1 hr by scintillation proximity assay
- condition: read-out: Ki
pKi: −log10 of the molar value.
quantity.measured: pKi

structure_notation=O=C(c1c[nH]c2cc(Cl)ccc12)N1CCC(n2c(=O)[nH]c3ccccc32)CC1 readout_number=5.62
structure_notation=O=C(c1c[nH]c2cc(Cl)ccc12)N1CCC(c2ccccc2)CC1 readout_number=5.83
structure_notation=CN1CCC[C@H]1Cn1cc(C(=O)N2CCC3(CC2)OCc2ccccc23)c2ccc(Cl)cc21 readout_number=7.89
structure_notation=CN1CCN(C(=O)Cn2cc(C(=O)N3CCC4(CC3)OCc3ccccc34)c3ccc(Cl)cc32)CC1 readout_number=7.39
structure_notation=O=C(c1cn(C[C@@H]2CCCN2)c2cc(Cl)ccc12)N1CCC2(CC1)OCc1ccccc12 readout_number=6.90
structure_notation=Cc1c(C(=O)N2CCC3(CC2)OCc2ccccc23)c2ccccc2n1Cc1ccccc1 readout_number=6.68
structure_notation=O=C(c1c[nH]c2ccccc12)N1CCC2(CC1)OCc1ccccc12 readout_number=5.18
structure_notation=O=C(c1c[nH]c2cc(Cl)ccc12)N1CCC2(CC1)OCc1ccccc12 readout_number=5.99
structure_notation=O=C(c1c[nH]c2cc(Cl)ccc12)N1CCC2(CC1)OCc1ccncc12 readout_number=5.53

* * *

- test.description: Activity at human P-gp assessed as drug transport
- Format: ADME
quantity.measured: Activity

structure_notation=O=C(c1c[nH]c2cc(Cl)ccc12)N1CCC2(CC1)OCc1ccccc12 result="Not Active"
structure_notation=CN1CCC(n2cc(C(=O)N3CCC4(CC3)OCc3ccccc34)c3ccc(Cl)cc32)CC1 result="Not Active"
structure_notation=CN1CCC[C@H]1Cn1cc(C(=O)N2CCC3(CC2)OCc2ccccc23)c2ccc(Cl)cc21 result="Not Active"
structure_notation=CN(C)CCn1cc(C(=O)N2CCC3(CC2)OCc2ccccc23)c2ccc(Cl)cc21 result="Not Active"
structure_notation=O=C(c1cn(C[C@@H]2CCCN2)c2cc(Cl)ccc12)N1CCC2(CC1)OCc1ccccc12 result=Active
structure_notation=CN(C)CCNC(=O)Cn1cc(C(=O)N2CCC3(CC2)OCc2ccccc23)c2ccc(Cl)cc21 result=Active
structure_notation=CN(C)C(=O)Cn1cc(C(=O)N2CCC3(CC2)OCc2ccccc23)c2ccc(Cl)cc21 result=Active

* * *

- Species on record: Homo sapiens
- test.description: Selectivity ratio of Ki for human oxytocin receptor to Ki for human vasopressin 1a receptor
The label depends only on Ratio Ki: yes (1) if it is at least 2000, no (0) if it is smaller.

structure_notation=CN1CCC(n2cc(C(=O)N3CCC4(CC3)OCc3ccccc34)c3ccc(Cl)cc32)CC1 label_class="no (0)"
structure_notation=O=C(c1cn(C[C@@H]2CCCN2)c2cc(Cl)ccc12)N1CCC2(CC1)OCc1ccccc12 label_class="no (0)"
structure_notation=CN(C)CCNC(=O)Cn1cc(C(=O)N2CCC3(CC2)OCc2ccccc23)c2ccc(Cl)cc21 label_class="yes (1)"
structure_notation=CN(C)CCn1cc(C(=O)N2CCC3(CC2)OCc2ccccc23)c2ccc(Cl)cc21 label_class="yes (1)"
structure_notation=CN1CCN(C(=O)Cn2cc(C(=O)N3CCC4(CC3)OCc3ccccc34)c3ccc(Cl)cc32)CC1 label_class="yes (1)"
structure_notation=O=C(c1c[nH]c2cc(Cl)ccc12)N1CCC2(CC1)OCc1ccccc12 label_class="no (0)"

* * *

- test.description: Ratio of drug level in brain to plasma in mouse at 10 mg/kg, po
- Type: ADME, organism-based
- Set-up: dose 10 mg/kg, route oral
- condition: read-out: BPR
Parameter Kp: see the listing below.
quantity.measured: Kp

structure_notation=CN1CCC[C@H]1Cn1cc(C(=O)N2CCC3(CC2)OCc2ccccc23)c2ccc(Cl)cc21 readout_number=2
structure_notation=CN1CCC(n2cc(C(=O)N3CCC4(CC3)OCc3ccccc34)c3ccc(Cl)cc32)CC1 readout_number=1
structure_notation=CN(C)C(=O)Cn1cc(C(=O)N2CCC3(CC2)OCc2ccccc23)c2ccc(Cl)cc21 readout_number=0.05
structure_notation=O=C(c1cn(C[C@@H]2CCCN2)c2cc(Cl)ccc12)N1CCC2(CC1)OCc1ccccc12 readout_number=0.05
structure_notation=CN1CCN(C(=O)Cn2cc(C(=O)N3CCC4(CC3)OCc3ccccc34)c3ccc(Cl)cc32)CC1 readout_number=0.07
structure_notation=CN(C)CCNC(=O)Cn1cc(C(=O)N2CCC3(CC2)OCc2ccccc23)c2ccc(Cl)cc21 readout_number=0.1
structure_notation=CN(C)CCn1cc(C(=O)N2CCC3(CC2)OCc2ccccc23)c2ccc(Cl)cc21 readout_number=1.4

* * *

- test.description: Clearance in mouse at 2 mg/kg, iv
- Format: ADME, organism-based
- Set-up: dose 2 mg/kg, route intravenous
- condition: in vivo
quantity.measured: clearance (mL/min/kg)

structure_notation=CN1CCC[C@H]1Cn1cc(C(=O)N2CCC3(CC2)OCc2ccccc23)c2ccc(Cl)cc21 quantity_measured=clearance readout_number=67
structure_notation=CN(C)CCn1cc(C(=O)N2CCC3(CC2)OCc2ccccc23)c2ccc(Cl)cc21 quantity_measured=clearance readout_number=91
structure_notation=O=C(c1cn(C[C@@H]2CCCN2)c2cc(Cl)ccc12)N1CCC2(CC1)OCc1ccccc12 quantity_measured=clearance readout_number=32
structure_notation=CN(C)CCNC(=O)Cn1cc(C(=O)N2CCC3(CC2)OCc2ccccc23)c2ccc(Cl)cc21 quantity_measured=clearance readout_number=14
structure_notation=CN(C)C(=O)Cn1cc(C(=O)N2CCC3(CC2)OCc2ccccc23)c2ccc(Cl)cc21 quantity_measured=clearance readout_number=40
structure_notation=CN1CCC(n2cc(C(=O)N3CCC4(CC3)OCc3ccccc34)c3ccc(Cl)cc32)CC1 quantity_measured=clearance readout_number=52
structure_notation=CN1CCN(C(=O)Cn2cc(C(=O)N3CCC4(CC3)OCc3ccccc34)c3ccc(Cl)cc32)CC1 quantity_measured=clearance readout_number=39

* * *

- subject.of.test: Vasopressin V1a receptor (Homo sapiens)
- Sequence (P37288 whole entry): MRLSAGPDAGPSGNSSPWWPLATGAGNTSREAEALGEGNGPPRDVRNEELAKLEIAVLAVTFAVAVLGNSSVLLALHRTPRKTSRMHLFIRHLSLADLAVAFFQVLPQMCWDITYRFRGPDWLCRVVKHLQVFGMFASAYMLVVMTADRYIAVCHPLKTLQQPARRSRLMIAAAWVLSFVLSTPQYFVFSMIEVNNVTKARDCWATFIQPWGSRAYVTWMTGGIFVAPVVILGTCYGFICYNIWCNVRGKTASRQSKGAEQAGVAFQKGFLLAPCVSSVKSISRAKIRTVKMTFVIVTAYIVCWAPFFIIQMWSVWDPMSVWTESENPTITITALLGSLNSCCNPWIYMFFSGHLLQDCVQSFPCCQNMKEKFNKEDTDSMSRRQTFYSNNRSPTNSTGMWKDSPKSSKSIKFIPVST
- test.description: Displacement of [3H]-vasopressin from human vasopressin 1a receptor expressed in HEK293 cell membranes after 1 hr by scintillation proximity assay
- condition: read-out: Ki
pKi: −log10 of the molar value.
Catalogue of pKi values
quantity.measured: pKi

structure_notation=O=C(c1cn(C[C@@H]2CCCN2)c2cc(Cl)ccc12)N1CCC2(CC1)OCc1ccccc12 quantity_measured=pKi readout_number=8.85
structure_notation=Cc1c(C(=O)N2CCC(O)(Cc3ccccc3)CC2)c2ccccc2n1C(=O)c1ccccc1 quantity_measured=pKi readout_number=5.41
structure_notation=O=C(c1c[nH]c2ccccc12)N1CCC2(CC1)OCc1ccccc12 quantity_measured=pKi readout_number=7.49
structure_notation=O=C1OC2(CCN(C(=O)c3c[nH]c4cc(Cl)ccc34)CC2)c2ccccc21 quantity_measured=pKi readout_number=8.30
structure_notation=O=C(c1c[nH]c2cc(Cl)ccc12)N1CCN(c2ccccc2Cl)CC1 quantity_measured=pKi readout_number=6.93
structure_notation=O=C(c1c[nH]c2cc(Cl)ccc12)N1CCC(c2ccccc2)CC1 quantity_measured=pKi readout_number=7.64
structure_notation=CCOc1ccc2ccccc2c1C(=O)N1CCC(O)(Cc2ccccc2)CC1 quantity_measured=pKi readout_number=5.55
structure_notation=O=C(c1c[nH]c2cc(Cl)ccc12)N1CCC2(CC1)OCc1ccccc12 quantity_measured=pKi readout_number=8.40
structure_notation=O=C(c1c[nH]c2cc(Cl)ccc12)N1CCC2(CC1)OCc1ccncc12 quantity_measured=pKi readout_number=8.05
structure_notation=O=C(c1c[nH]c2cc(Cl)ccc12)N1CCC2(CC1)OCc1cccnc12 quantity_measured=pKi readout_number=8.30
